Hey, just so you know, these numbers are from paper PMC3823998.

Target: the molecule itself
Assay: SEC; Superdex 200 5/150 GL, 20 mM potassium phosphate pH 6.0, 10 mM MgCl2, 0.15 M NaCl; masses estimated from a calibration curve; self-association, no DNA

protein	binding result
Redβ G78A (natural protein, bacteriophage λ, three residues (Gly-Ser-His) left before the initial methionine after thrombin removal of the tag; Redβ, recombinase of Enterobacteria phage λ, alanine substitution mutant; source: E. coli BL21(DE3), purified (HisTrap FF, thrombin digestion, HisTrap FF, Benzamidine FF); not shown: His6, N-terminal, cleaved) GSHMSTALATLAGKLAERVGMDSVDPQELITTLRQTAFKGDASDAQFIALLIVANQYGLNPWTKEIYAFPDKQNGIVPVVAVDGWSRIINENQQFDGMDFEQDNESCTCRIYRKDRNHPICVTEWMDECRREPFKTREGREITGPWQSHPKRMLRHKAMIQCARLAFGFAGIYDKDEAERIVENTAYTAERQPERDITPVNDETMQEINTLLIALDKTWDDDLLPLCSQIFRRDIRASSELTQAEAVKALGFLKQKAAEQKVAA	binds
Redβ K132A (natural protein, bacteriophage λ, three residues (Gly-Ser-His) left before the initial methionine after thrombin removal of the tag; Redβ, recombinase of Enterobacteria phage λ, alanine substitution mutant; source: E. coli BL21(DE3), purified (HisTrap FF, thrombin digestion, HisTrap FF, Benzamidine FF); not shown: His6, N-terminal, cleaved) GSHMSTALATLAGKLAERVGMDSVDPQELITTLRQTAFKGDASDAQFIALLIVANQYGLNPWTKEIYAFPDKQNGIVPVVGVDGWSRIINENQQFDGMDFEQDNESCTCRIYRKDRNHPICVTEWMDECRREPFATREGREITGPWQSHPKRMLRHKAMIQCARLAFGFAGIYDKDEAERIVENTAYTAERQPERDITPVNDETMQEINTLLIALDKTWDDDLLPLCSQIFRRDIRASSELTQAEAVKALGFLKQKAAEQKVAA	binds
Redβ R152A (natural protein, bacteriophage λ, three residues (Gly-Ser-His) left before the initial methionine after thrombin removal of the tag; Redβ, recombinase of Enterobacteria phage λ, alanine substitution mutant; source: E. coli BL21(DE3), purified (HisTrap FF, thrombin digestion, HisTrap FF, Benzamidine FF); not shown: His6, N-terminal, cleaved) GSHMSTALATLAGKLAERVGMDSVDPQELITTLRQTAFKGDASDAQFIALLIVANQYGLNPWTKEIYAFPDKQNGIVPVVGVDGWSRIINENQQFDGMDFEQDNESCTCRIYRKDRNHPICVTEWMDECRREPFKTREGREITGPWQSHPKRMLAHKAMIQCARLAFGFAGIYDKDEAERIVENTAYTAERQPERDITPVNDETMQEINTLLIALDKTWDDDLLPLCSQIFRRDIRASSELTQAEAVKALGFLKQKAAEQKVAA	binds
